These entries and their values trace back to ChEMBL document CHEMBL2095176.

- method notes: physchem
- condition context: phosphate buffered saline, pH 7.4
solubility kinetic of 100 µM or higher: 1 (yes). Under 100 µM: 0 (no).

Does the reported solubility kinetic for CN(C)S(=O)(=O)c1ccc(C(=O)Nc2nnc(-c3ccc(Cl)s3)o2)cc1 fall at or above the 100 µM mark? 1 (yes)

Does the reported solubility kinetic for Br.CCc1ccccc1OCCCON1C(=N)N=C(N)NC1(C)C fall at or above the 100 µM mark? 1 (yes)

Does the reported solubility kinetic for N#Cc1nc(-c2ccccc2F)oc1NCCc1ccccc1 fall at or above the 100 µM mark? 0 (no)

Does the reported solubility kinetic for CSc1ccc(-c2nnc(NC(=O)c3ccc(Cl)s3)o2)cc1 fall at or above the 100 µM mark? 0 (no)

Does the reported solubility kinetic for Cc1occc1C(=O)Nc1nc(-c2ccccn2)nc2ccsc12 fall at or above the 100 µM mark? 1 (yes)

Does the reported solubility kinetic for O=C(Nc1nnc(-c2ccc(Cl)cc2)o1)c1cccc(C(F)(F)F)c1 fall at or above the 100 µM mark? 0 (no)

Does the reported solubility kinetic for CCOC(=O)c1cc(-c2csc(Nc3c(C)cc(C)cc3C)n2)on1 fall at or above the 100 µM mark? 0 (no)

Does the reported solubility kinetic for O=C(NC(Cc1ccccc1)C(=O)Nc1ccccc1N1CCOCC1)c1cccs1 (stereo not given) fall at or above the 100 µM mark? 0 (no)

Does the reported solubility kinetic for CCc1ccc(S(=O)(=O)Nc2cc(CN3CCN(CCC(C)C)CC3)ccc2C)cc1.O=C(O)C(F)(F)F.O=C(O)C(F)(F)F fall at or above the 100 µM mark? 1 (yes)

Does the reported solubility kinetic for c1ccc(-c2nnc(Sc3ccnc(N4CCN(c5ccncc5)CC4)n3)n2CCCN2CCOCC2)nc1 fall at or above the 100 µM mark? 1 (yes)
